B1: Azoarcus group I ribozyme (parent)
chain: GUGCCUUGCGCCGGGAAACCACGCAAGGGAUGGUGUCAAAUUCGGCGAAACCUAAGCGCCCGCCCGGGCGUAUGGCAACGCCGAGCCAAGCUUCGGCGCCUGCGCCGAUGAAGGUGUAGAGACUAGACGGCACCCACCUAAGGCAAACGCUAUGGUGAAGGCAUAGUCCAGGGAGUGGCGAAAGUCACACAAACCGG

- Variants of: B1
- assay_text: reverse-splicing fitness (ratio to wild type); higher = more active; in vitro selection; Mg2+ level not given
Can you tell me reverse-splicing fitness for the items I'm about to list?

Data request: Bench note: what reverse-splicing fitness did C82G A111U A120G C150A C169G U176C show?
Data returned: 0.0245

Data request: Bench note: what reverse-splicing fitness did C82U A111U A120U A145C C150A C169A show?
Data returned: 0.00214

Data request: Bench note: what reverse-splicing fitness did C82A A145U C150G C169A U176C show?
Data returned: 0.00974

Data request: Bench note: what reverse-splicing fitness did C82U A111G A145U C150G C169G U176C show?
Data returned: 0.00527

Data request: Bench note: what reverse-splicing fitness did C82U A145C C150G C169G U176C show?
Data returned: 0.00649

Data request: Bench note: what reverse-splicing fitness did A111C A120U A145C C150A C169U U176G show?
Data returned: 0.00242

Data request: Bench note: what reverse-splicing fitness did C82A A111C A145U C169A U176C show?
Data returned: 0.0156

Data request: Bench note: what reverse-splicing fitness did C82G A145U C150G C169A show?
Data returned: 0.00874

Data request: Bench note: what reverse-splicing fitness did C82G A120U C150A show?
Data returned: 0.0159

Data request: Bench note: what reverse-splicing fitness did C82A A111C A145G C169A U176A show?
Data returned: 0.0211

Data request: Bench note: what reverse-splicing fitness did C82G A111U A120C A145C C150U C169U show?
Data returned: 0.0113

Data request: Bench note: what reverse-splicing fitness did C82U A111G A120C C150G C169U U176C show?
Data returned: 0.0138

Data request: Bench note: what reverse-splicing fitness did C82A A145G C169G U176A show?
Data returned: 0.0218

Data request: Bench note: what reverse-splicing fitness did A111G A120G C150G U176A show?
Data returned: 0.011

Data request: Bench note: what reverse-splicing fitness did C82G A111G A145U C150A U176G show?
Data returned: 0.0136

Data request: Bench note: what reverse-splicing fitness did C82U A111U A120G A145C C150A C169G U176G show?
Data returned: 0.00478

Data request: Bench note: what reverse-splicing fitness did C82A A111U A120G A145G C150G show?
Data returned: 0.00699
